This collection of values is drawn from patent US12617779B2.

Residual rate values by entry
- experiment-notes: Evaluation of conversion rate to active form in buffer solution (Experimental Example 1)
- Format: physicochemical
- conditions: pH7.0, 0 hr
- Procedure: For Examples 1 to 16 and Comparative Examples 1 to 14, the attrition rate of the test compound and the conversion rate of the test compound to Alvocidib in a buffer solution were calculated by the following method. Examples 1 to 16 and Comparative Examples 1 to 14 were each left in buffer solutions adjusted to pH 5.0, 5.5, 6.0, 6.5, 7.0 and 7.4, respectively, at a concentration of 25 umol/L at 37° C. […]
API: value field is a number in %; no unit string.

# annotated cases, reported Residual rate shown
[
  {
    "compound": "CN1CC[C@H](c2c(O)cc(O)c3c(=O)cc(-c4ccccc4Cl)oc23)[C@H](OC(=O)[C@@H](N)CO)C1 [Comparative Example 9, reference compound]",
    "endpoint-result": 85.9
  },
  {
    "compound": "CC(C)[C@H](N)C(=O)O[C@@H]1CN(C)CC[C@@H]1c1c(O)cc(O)c2c(=O)cc(-c3ccccc3Cl)oc12 [Comparative Example 10, reference compound]",
    "endpoint-result": 93.2
  },
  {
    "compound": "CNC(=O)O[C@@H]1CN(C)CC[C@@H]1c1c(O)cc(O)c2c(=O)cc(-c3ccccc3Cl)oc12 [Comparative Example 5, reference compound]",
    "endpoint-result": 93.9
  }
]

Request the reported Residual rate associated with CCNC(=O)O[C@@H]1CN(C)CC[C@@H]1c1c(O)cc(O)c2c(=O)cc(-c3ccccc3Cl)oc12 [Comparative Example 4, reference compound]
97.7

====

As shown below, each of these molecules has a reported Production rate of Alvocidib value.
- experiment-notes: Evaluation of conversion rate to active form in buffer solution (Experimental Example 1)
- Type: physicochemical
- conditions: pH6.0, 3 hr
Write it as a number; the unit % goes unstated.

Before answering, review these 2 worked examples.
[
  {
    "molecule": "CNC(=O)Oc1cc(O)c2c(=O)cc(-c3ccccc3Cl)oc2c1[C@H]1CCN(C)C[C@H]1O [Comparative Example 2, reference compound]",
    "Production rate of Alvocidib [%]": 98.6
  },
  {
    "molecule": "C[C@H](N)C(=O)O[C@@H]1CN(C)CC[C@@H]1c1c(O)cc(O)c2c(=O)cc(-c3ccccc3Cl)oc12 [Comparative Example 7, reference compound]",
    "Production rate of Alvocidib [%]": 84.8
  }
]

Which value of Production rate of Alvocidib has been reported for CN1CC[C@H](c2c(OC(=O)N(C)CCN)cc(O)c3c(=O)cc(-c4ccccc4Cl)oc23)[C@H](O)C1 [Comparative Example 13, reference compound] in the records?
75.5

Look up Production rate of Alvocidib for this molecule: CCOC(=O)O[C@@H]1CN(C)CC[C@@H]1c1c(O)cc(O)c2c(=O)cc(-c3ccccc3Cl)oc12 [Comparative Example 3, reference compound]
1.2

====

- experiment-notes: Evaluation of conversion rate to active form in buffer solution (Experimental Example 1)
- Type: physicochemical
- conditions: pH6.5, 0.5 hr
result-type: Residual rate (%)
Write the number in % without appending the unit.

[
  {
    "compound": "CN1CC[C@H](c2c(O)cc(O)c3c(=O)cc(-c4ccccc4Cl)oc23)[C@H](OC(=O)CN)C1 [Comparative Example 8, reference compound]",
    "Residual rate / %": 66.7
  },
  {
    "compound": "CN1CC[C@H](c2c(O)cc(O)c3c(=O)cc(-c4ccccc4Cl)oc23)[C@H](OC(=O)[C@@H](N)CO)C1 [Comparative Example 9, reference compound]",
    "Residual rate / %": 74.7
  }
]

Kindly consider the entry below.
I'd like to know its Residual rate. The compound in question is CN1CC[C@H](c2c(OC(=O)N(C)CCN)cc(O)c3c(=O)cc(-c4ccccc4Cl)oc23)[C@H](O)C1 [Comparative Example 13, reference compound]
42.2

====

- experiment-notes: Evaluation of conversion rate to active form in BALB/c mouse plasma (Experimental Example 3)
- Format: in vitro ADME
- conditions: Mouse plasma, 0.2 μmol/L, 37° C., 30 min
result-type: Residual rate (%) of test compound

Find the recorded Residual rate (%) of test compound belonging to CCN(C[C@@H]1CCCCN1)C(=O)Oc1cc(O)c2c(=O)cc(-c3ccccc3Cl)oc2c1[C@H]1CCN(C)C[C@H]1O [Example 1, ditrifluoroacetate] and report it.
24%

Can you look up the measured Residual rate (%) of test compound of "CN1CC[C@H](c2c(OC(=O)N(C)C[C@@H]3CCCCN3)cc(O)c3c(=O)cc(-c4ccccc4Cl)oc23)[C@H](O)C1" for me?
8%

Data request, read-out Residual rate (%) of test compound, for "CN1CC[C@H](c2c(OC(=O)N(C)C[C@H]3CCCCN3)cc(O)c3c(=O)cc(-c4ccccc4Cl)oc23)[C@H](O)C1"
5%

Could you tell me which Residual rate (%) of test compound is on file for "CCN(C[C@H]1CCCCN1)C(=O)Oc1cc(O)c2c(=O)cc(-c3ccccc3Cl)oc2c1[C@H]1CCN(C)C[C@H]1O" ?
25%

Consider the compound shown here: "CCCN(C[C@H]1CCCCN1)C(=O)Oc1cc(O)c2c(=O)cc(-c3ccccc3Cl)oc2c1[C@H]1CCN(C)C[C@H]1O" What is its recorded Residual rate (%) of test compound?
26%

I am curious: what Residual rate (%) of test compound value has been reported for "CCCN(C[C@@H]1CCCCN1)C(=O)Oc1cc(O)c2c(=O)cc(-c3ccccc3Cl)oc2c1[C@H]1CCN(C)C[C@H]1O" ?
36%

====

Each entry below carries its reported Production rate of Alvocidib.
- experiment-notes: Evaluation of conversion rate to active form in buffer solution (Experimental Example 1)
- Format: physicochemical
- conditions: pH5.0, 0 hr
Please reply with the bare figure in % and do not write the unit itself.

[
  {
    "molecule": "CN1CC[C@H](c2c(O)cc(O)c3c(=O)cc(-c4ccccc4Cl)oc23)[C@H](OC(=O)CN)C1 [Comparative Example 8, reference compound]",
    "quantity-unit": "%",
    "Production rate of Alvocidib": 16.1
  },
  {
    "molecule": "CNCCN(C)C(=O)Oc1cc(O)c2c(=O)cc(-c3ccccc3Cl)oc2c1[C@H]1CCN(C)C[C@H]1O [Comparative Example 14, reference compound]",
    "quantity-unit": "%",
    "Production rate of Alvocidib": 1.2
  },
  {
    "molecule": "CN1CC[C@H](c2c(O)cc(O)c3c(=O)cc(-c4ccccc4Cl)oc23)[C@H](OC(=O)[C@@H](N)CO)C1 [Comparative Example 9, reference compound]",
    "quantity-unit": "%",
    "Production rate of Alvocidib": 5.0
  },
  {
    "molecule": "CCOC(=O)O[C@@H]1CN(C)CC[C@@H]1c1c(O)cc(O)c2c(=O)cc(-c3ccccc3Cl)oc12 [Comparative Example 3, reference compound]",
    "quantity-unit": "%",
    "Production rate of Alvocidib": 1.2
  },
  {
    "molecule": "CN1CC[C@H](c2c(OC(=O)N(C)CCN)cc(O)c3c(=O)cc(-c4ccccc4Cl)oc23)[C@H](O)C1 [Comparative Example 13, reference compound]",
    "quantity-unit": "%",
    "Production rate of Alvocidib": 0.0
  }
]

Below: the item to evaluate.
State the recorded Production rate of Alvocidib for this entry: CCNC(=O)O[C@@H]1CN(C)CC[C@@H]1c1c(O)cc(O)c2c(=O)cc(-c3ccccc3Cl)oc12 [Comparative Example 4, reference compound]
1.7

====

- experiment-notes: Liposome encapsulation test, remote loading method (Experimental Example 4)
- Assay type: physicochemical
- conditions: Compound concentration when encapsulated 10 mg/mL
Counter-ions that a name gives are not always drawn.
Classification by Encapsulated compound content per 50 μmol of lipid | ranges: band 1 = under 3 mg, band 2 = from 3 mg up to 7 mg, band 3 = 7 mg and over

[
  {
    "compound": "CCN(CCC1CCCCN1)C(=O)Oc1cc(O)c2c(=O)cc(-c3ccccc3Cl)oc2c1[C@H]1CCN(C)C[C@H]1O (stereo partly drawn) [Example 16]",
    "classification": "band 1"
  },
  {
    "compound": "CN1CC[C@H](c2c(OC(=O)N(C)CC3CCCCN3)cc(O)c3c(=O)cc(-c4ccccc4Cl)oc23)[C@H](O)C1 (stereo partly drawn) [Example 8]",
    "classification": "band 2"
  },
  {
    "compound": "CN1CC[C@H](c2c(OC(=O)N(C)C[C@@H]3COCCN3)cc(O)c3c(=O)cc(-c4ccccc4Cl)oc23)[C@H](O)C1 [Example 17]",
    "classification": "band 1"
  },
  {
    "compound": "CN1CC[C@H](c2c(OC(=O)N(CCF)CC3CCCCN3)cc(O)c3c(=O)cc(-c4ccccc4Cl)oc23)[C@H](O)C1 (stereo partly drawn) [Example 11]",
    "classification": "band 2"
  },
  {
    "compound": "COCCN(CC1CCCCN1)C(=O)Oc1cc(O)c2c(=O)cc(-c3ccccc3Cl)oc2c1[C@H]1CCN(C)C[C@H]1O (stereo partly drawn) [Example 12]",
    "classification": "band 2"
  },
  {
    "compound": "CCN(C[C@@H]1CCCCN1)C(=O)Oc1cc(O)c2c(=O)cc(-c3ccccc3Cl)oc2c1[C@H]1CCN(C)C[C@H]1O [Example 1, ditrifluoroacetate]",
    "classification": "band 3"
  }
]

For CCN(CC1CCCCN1)C(=O)Oc1cc(O)c2c(=O)cc(-c3ccccc3Cl)oc2c1[C@H]1CCN(C)C[C@H]1O (stereo partly drawn) [Example 7, dihydrochloride] , which Encapsulated compound content per 50 μmol of lipid bin applies?
band 3

Bin? CC(C)N(CC1CCCCN1)C(=O)Oc1cc(O)c2c(=O)cc(-c3ccccc3Cl)oc2c1[C@H]1CCN(C)C[C@H]1O (stereo partly drawn) [Example 10]
band 1

Class label required: CCCN(C[C@H]1CCCCN1)C(=O)Oc1cc(O)c2c(=O)cc(-c3ccccc3Cl)oc2c1[C@H]1CCN(C)C[C@H]1O [Example 6]
band 2

Given CN1CC[C@H](c2c(OC(=O)N(CCC(F)(F)F)CC3CCCCN3)cc(O)c3c(=O)cc(-c4ccccc4Cl)oc23)[C@H](O)C1 (stereo partly drawn) [Example 13] , name the class its Encapsulated compound content per 50 μmol of lipid places it in.
band 2

Category of CN1CC[C@H](c2c(OC(=O)N(Cc3ccccc3)CC3CCCCN3)cc(O)c3c(=O)cc(-c4ccccc4Cl)oc23)[C@H](O)C1 (stereo partly drawn) [Example 15] , please.
band 1

Please indicate the class for CN1CC[C@H](c2c(OC(=O)N(CCCC(F)(F)F)CC3CCCCN3)cc(O)c3c(=O)cc(-c4ccccc4Cl)oc23)[C@H](O)C1 (stereo partly drawn) [Example 14] based on its Encapsulated compound content per 50 μmol of lipid.
band 1
